Source: patent US20130302399A1

Parameter: koff. Scope: all listed entries.
# studyTarget: T1, human Proprotein Convertase Subtilisin-like/Kexin type 9 (human, UniProt Q8NBP7 31-692, limits assumed)
# T1 construct: Biotinylated in the ELISAs; unlabelled analyte in BLI and SPR; also called human PCSK9; PCSK9
# T1 sequence (Q8NBP7 31-692 limits assumed): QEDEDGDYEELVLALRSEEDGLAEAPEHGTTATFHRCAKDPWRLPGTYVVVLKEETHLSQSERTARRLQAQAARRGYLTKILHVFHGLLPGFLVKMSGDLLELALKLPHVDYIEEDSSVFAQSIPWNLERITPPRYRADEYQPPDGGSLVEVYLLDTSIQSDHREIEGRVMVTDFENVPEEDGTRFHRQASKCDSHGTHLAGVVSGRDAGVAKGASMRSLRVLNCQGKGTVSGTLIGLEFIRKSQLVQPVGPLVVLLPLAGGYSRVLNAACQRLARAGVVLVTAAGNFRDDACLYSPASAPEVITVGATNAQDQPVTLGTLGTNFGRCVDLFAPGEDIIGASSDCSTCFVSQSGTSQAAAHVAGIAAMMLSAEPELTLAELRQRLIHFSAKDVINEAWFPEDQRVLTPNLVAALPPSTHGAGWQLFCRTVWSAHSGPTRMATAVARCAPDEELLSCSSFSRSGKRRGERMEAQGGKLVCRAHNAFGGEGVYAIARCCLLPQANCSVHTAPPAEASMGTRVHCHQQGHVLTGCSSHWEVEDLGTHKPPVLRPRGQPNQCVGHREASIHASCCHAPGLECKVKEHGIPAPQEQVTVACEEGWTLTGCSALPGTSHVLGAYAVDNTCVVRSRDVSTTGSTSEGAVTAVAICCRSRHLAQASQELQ
# assayComment: SPR (ProteOn XPR36), biotinylated antibody on neutravidin chip, human PCSK9 as analyte, 1:1 fit, mean of 4 densities
Number only, in s⁻¹; omit the unit.

| binder | unitsText | koff |
| --- | --- | --- |
| Ab23 (antibody, human IgG1, kappa, N297A, V domains shown, also called antibody Ab23) VH: QSLEESGGDLVKPGASLTLTCKASGFSFSSGYYMCWVRQAPGKGLEWIACIYAGSGGSTFFANWAKGRFTISKTSSTTVTLQMTSLTAADTATYFCARDGGYAGYGYAFFNLWGPGTLVTVSS VL: DVVMTQTPASVSEPVGGTVTIKCQASERIYSGLAWYQQKPGQPPKLLIYGASTLASGVPSRFKGSGSGTDFTLTISDLECDDAAIYYCQCTYYGSSYPNVFGGGTEVVVKR | s⁻¹ | 3.71e-05 |
| Ab24 (antibody, human IgG1, kappa, N297A, V domains shown, also called antibody Ab24) VH: QSLEESGGDLVKPGASLTLTCKASGFSFSSGYYMCWVRQAPGKGLEWIACIYAGSGGSTFFANWAKGRFTISKTSSTTVTLQMTSLTAADTATYFCARDGGYAGYGYAFFNLWGPGTLVTVSS VL: DVVMTQTPASVSEPVGGTVTIKCQASERIYSGLAWYQQKPGQPPKLLIYGASTLASGVPSRFKGSGSGTDFTLTISDLECDDAAIYYCQATYYGSSYPNVFGGGTEVVVKR | s⁻¹ | 6.16e-05 |
| Ab22 (antibody, human IgG1, kappa, N297A, V domains shown, also called antibody Ab22) VH: EVQLVESGGGLVQPGGSLRLSCAASGFSLSSYAMNWVRQAPGKGLEWIGAIRSSGATFFASSVNGRFTISRDNSKNTVYLQMNSLRAEDTAVYYCARDTNDGWYINRLDLWGQGTLVTVSS VL: AVLTQSPSTLSASVGDRVTITCQSSKSVYSNYLSWFQQKPGKAPKFLIYKASTLASGVPSRFSGSGSGTEFTLTISSLQPDDFATYYCAGGDTNIADNAFGGGTKVEIKR | s⁻¹ | 0.000259 |

Now let's try a different one.
Prompt: For Ab21 (antibody, human IgG1, kappa, N297A, V domains shown, also called antibody Ab21) VH: QSVEESGGRLVTPGTPLTLTCTVSGFSLSSYAMNWVRQAPGKGLEWIGAIRSSGATFFASWVNGRFTISKTSTTVDLKITSPTPEDTATYFCARDTNDGWYINRLDLWGPGTLVTVSS VL: AAVLTQTPSPVSAAVGGTVSISCQSSKSVYSNYLSWFQQKPGQPPKFLIYKASTLASGVPSRFKGSGSGTQFTLTISDVQCDDAATYYCAGGDTNISDNAFGGGTEVVVKR , what is its reported koff?
Completion: 0.000354
